B1: HDV Ribozyme (parent)
chain: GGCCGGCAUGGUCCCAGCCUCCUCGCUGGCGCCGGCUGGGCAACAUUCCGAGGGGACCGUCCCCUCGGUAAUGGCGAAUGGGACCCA

variants of: B1; assay: self-cleavage, relative activity (ratio to wild type); higher = more cleavage; co-transcriptional
READOUT_TYPE: self-cleavage
Lab note: jot the number down without any unit.

Look over these answered cases.
> print(dat)
                                        seq  measured.number
1  GGCCGGCAUGGUCCCAGCCUCCUCGCUGGCGCCGGCUGGGCAACAUUCCGAGGGGACCGUCCCCUCGCAAAUGGCGAAUGGGACCCA            0.739
2  GGCCGGCAUGGUCCCAGCCUCCUCUCUGGCGCCGGCUGGGCAAGAUUCCGAGGGGACCGUCCCCUCGGUAAUGGCGAAUGGGACCCA            0.249
3  GGCCGGCAUGGUCCCAGGCUCAUCGCUGGCGCCGGCUGGGCAACAUUCCGAGGGGACCGUCCCCUCGGUAAUGGCGAAUGGGACCCA            0.172
4  GGCCGGCAUGGUCCCAGCCUUCUCGCUGGCGCCGGCUGGGCAACAUUCCGAGGGGACCGUCCCCUCGGUAAUGGUGAAUGGGACCCA           0.0248
5  GGCCGGCAUGGUCCCAGCCUCCUCGCUGGCGCCGGCUGGGCAACAUUCCGAGGGGACCGUCCCCUCGGUAAUCGCGAUUGGGACCCA            0.155
6  GGCCGGCAUGGUCCCAGCCUCCUCGCUGGCGCCGACUGGGCAACAUUCUGAGGGGACCGUCCCCUCGGUAAUGGCGAAUGGGACCCA            0.596

Item GGCCGGCAUGGUCCCAGCCUCCUCGCAGGCGCCGGCUGGGCAACAUUCCGAGGUGACCGUCCCCUCGGUAAUGGCGAAUGGGACCCA : provide self-cleavage
0.845

Recorded values, source the RNAGym collection of RNA variant scans (doi:10.7554/elife.80360).
